Could you please report measured DC50 for the items listed next?
Target: IRAK4 (Homo sapiens, UniProt Q9NWZ3)
Construct: endogenous in cells; host or cells: OCI-LY10
Sequence (Q9NWZ3 whole entry): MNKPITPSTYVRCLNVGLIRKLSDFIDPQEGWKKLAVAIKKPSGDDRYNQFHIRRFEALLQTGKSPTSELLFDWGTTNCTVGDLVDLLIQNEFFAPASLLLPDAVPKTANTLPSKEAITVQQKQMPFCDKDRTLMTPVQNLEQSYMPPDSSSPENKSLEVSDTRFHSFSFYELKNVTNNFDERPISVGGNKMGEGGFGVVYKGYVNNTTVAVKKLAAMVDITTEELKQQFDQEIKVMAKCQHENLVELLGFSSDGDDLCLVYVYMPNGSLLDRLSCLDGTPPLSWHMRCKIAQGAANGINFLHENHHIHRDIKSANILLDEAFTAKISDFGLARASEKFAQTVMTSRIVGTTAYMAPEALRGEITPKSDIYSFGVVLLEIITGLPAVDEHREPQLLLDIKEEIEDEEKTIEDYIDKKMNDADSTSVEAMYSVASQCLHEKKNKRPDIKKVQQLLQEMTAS
Test: IRAK4 MSD Degradation in OCI-LY10
Type: cell-based
Details: OCI-LY10 cells, Meso Scale Discovery, incubated 4 to 24 hours
Protocol: Degradation of IRAK4 in OCI-LY10 was quantitatively measured using Meso Scale Discovery technology. OCI-LY10 cells were seeded in 96-well plates (Corning 3799) with a density of 300,000 cells per well in 100 μL fresh media. […] The assay plates were then incubated at room temperature for 1 hour, washed 3 times with 150 μL/well TBST buffer, and 150 μL/well MSD reading buffer (Meso Scale Discovery catalog number R92TC-2) was added. […]

Study these solved cases before continuing.
CC(C)(O)c1cc2nc([C@H]3CC[C@H](CN4CCO[C@H](CCCNc5cccc6c5C(=O)N(C5CCC(=O)NC5=O)C6=O)C4)CC3)sc2cc1NC(=O)c1cccc(C#N)n1 (some centres unmarked) [I-442]: 50 to 100 nM
Cn1c(=O)n(C2CCC(=O)NC2=O)c2cccc(C3CCN(C[C@H]4CC[C@H](n5cc6cc(NC(=O)c7cccc(C(F)(F)F)n7)c(C#N)cc6n5)CC4)CC3)c21 (some centres unmarked) [I-189]: < 10 nM
COc1cc2nn([C@H]3CC[C@H](CN4CCC(c5c(OC)ccc6c5n(C)c(=O)n6C5CCC(=O)NC5=O)CC4)CC3)cc2cc1NC(=O)c1cncc(Cl)c1 (some centres unmarked) [I-111]: < 10 nM
CC(C)Nc1cc(-n2ccc3cc(F)cnc32)ncc1C(=O)N[C@H]1CC[C@H](CN2CCN(c3cccc4c3n(C)c(=O)n4C3CCC(=O)NC3=O)CC2)CC1 (some centres unmarked) [I-290]: 10 to 50 nM
CC(C)Nc1cc(-c2ccc3cc(C#N)cnn23)ncc1C(=O)N[C@H]1CC[C@H](CN2CCC(c3cccc4c(N5CCC(=O)NC5=O)cncc34)CC2)CC1 [I-184]: < 10 nM
Cn1c(=O)n(C2CCC(=O)NC2=O)c2ccc(Cl)c(C3CCN(C[C@H]4CC[C@H](n5cc6cc(NC(=O)c7cccc(C(F)(F)F)n7)ncc6n5)CC4)CC3)c21 (some centres unmarked) [I-88]: 10 to 50 nM

Hello, I would appreciate it if you could give DC50 for each entry below.
1. O=C1CCN(c2cncc3c(N4CCN(C[C@H]5CC[C@H](n6cc7cc(NC(=O)c8cccc(C(F)(F)F)n8)c(C(F)F)cc7n6)CC5)CC4)cccc23)C(=O)N1 [I-371]
2. COc1cc2nn([C@H]3CC[C@H](CN4CCC(c5c(OC)ccc6c5n(C)c(=O)n6C5CCC(=O)NC5=O)CC4)CC3)cc2cc1NC(=O)c1cncc(C#N)c1 (some centres unmarked) [I-195]
3. CC(C)Nc1cc(-n2ccc3cc(C#N)cnc32)ncc1C(=O)N[C@H]1CC[C@H](CN2CCC(c3ccc4c(N5CCC(=O)NC5=O)cncc4c3)CC2)CC1 [I-127]

< 10 nM
10 to 50 nM
10 to 50 nM

Hello, I would appreciate it if you could give DC50 for each entry below.
1. Cn1c(=O)n(C2CCC(=O)NC2=O)c2ccc(F)c(C3CCN(C[C@H]4CC[C@H](n5cc6cc(NC(=O)c7cccc(C#N)n7)ccc6n5)CC4)CC3)c21 (some centres unmarked) [I-128]
2. Cn1c(=O)n(C2CCC(=O)NC2=O)c2cccc(N3CCN(C[C@H]4CC[C@H](n5cc6cc(NC(=O)c7cccc(C(F)(F)F)n7)c(Cl)cc6n5)CC4)CC3)c21 (some centres unmarked) [I-360]

< 10 nM
10 to 50 nM
